Below, each entry is listed with its recorded Emax.
Target: Cannabinoid receptor 1 (Homo sapiens)
Sequence (P21554 whole entry): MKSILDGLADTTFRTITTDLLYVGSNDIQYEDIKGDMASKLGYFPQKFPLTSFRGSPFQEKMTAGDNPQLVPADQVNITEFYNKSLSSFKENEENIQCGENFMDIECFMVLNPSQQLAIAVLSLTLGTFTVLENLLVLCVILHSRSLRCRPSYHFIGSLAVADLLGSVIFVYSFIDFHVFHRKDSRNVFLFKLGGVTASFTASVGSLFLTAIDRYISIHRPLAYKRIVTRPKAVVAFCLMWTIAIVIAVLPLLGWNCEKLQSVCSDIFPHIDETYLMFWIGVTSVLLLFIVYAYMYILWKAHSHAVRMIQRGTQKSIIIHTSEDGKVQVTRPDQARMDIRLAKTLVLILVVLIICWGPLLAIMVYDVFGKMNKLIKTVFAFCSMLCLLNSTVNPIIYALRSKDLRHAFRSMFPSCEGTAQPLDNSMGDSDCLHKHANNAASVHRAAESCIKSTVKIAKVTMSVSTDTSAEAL
Assay: Agonist activity at human CB1 receptor expressed in HEK293 cells assessed as [35S]GTPgamma binding relative to WIN55212-2
Assay type: functional, cell-based
Entry rule: numbers only, all in %.

Look up and report measured Emax for this entry: CN(CCCC(=O)NC1CC1)C(=O)c1ccc2c(c1)c1c(n2C)CCC(C2CCOCC2)C1 (stereo not drawn) 113

Look up and report measured Emax for this entry: "CN(CCCC(=O)NC1COC1)C(=O)c1ccc2c(c1)c1c(n2C)CC[C@@H](C2CCOCC2)C1" 116

Look up and report measured Emax for this entry: "CN(CCCC(=O)NCC#N)C(=O)c1ccc2c(c1)c1c(n2C)CC[C@@H](C2CCOCC2)C1" 110

Now look at this one.
Look up and report measured Emax for this entry: "CN(CC(=O)NC1CC1)C(=O)c1ccc2c(c1)c1c(n2C)CC[C@H](C2CCOCC2)C1" 111

====

Molecular target: Cytochrome P450 2C9 (Homo sapiens, UniProt P11712)
Sequence (P11712 whole entry): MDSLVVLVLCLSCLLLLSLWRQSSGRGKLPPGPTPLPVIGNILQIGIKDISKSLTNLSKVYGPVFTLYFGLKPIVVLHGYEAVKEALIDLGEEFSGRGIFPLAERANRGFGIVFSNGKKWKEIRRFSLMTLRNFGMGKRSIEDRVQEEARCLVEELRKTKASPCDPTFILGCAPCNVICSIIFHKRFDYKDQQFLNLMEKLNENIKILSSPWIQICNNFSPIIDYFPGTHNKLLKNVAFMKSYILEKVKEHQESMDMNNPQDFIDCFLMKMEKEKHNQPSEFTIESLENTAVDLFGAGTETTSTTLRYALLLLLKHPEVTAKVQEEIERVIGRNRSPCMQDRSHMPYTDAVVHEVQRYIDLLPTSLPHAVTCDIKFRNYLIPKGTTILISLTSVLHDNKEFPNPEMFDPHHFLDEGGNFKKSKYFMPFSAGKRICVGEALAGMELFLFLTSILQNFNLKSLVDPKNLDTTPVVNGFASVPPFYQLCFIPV
reported metric: pIC50
// returns pIC50 (minus log10 of molar concentration), number only

Report value: pIC50, system: Cytochrome P450 2C9 (Homo sapiens, UniProt P11712), compound: "CNC(=O)CCCN(C)C(=O)c1ccc2c(c1)c1c(n2C)CC[C@@H](C2CCOCC2)C1" 5.15

====

Experiment: Tmax in Sprague-Dawley rat at 9 umol/kg, po
Format: ADME, organism-based
Conditions: in vivo
reported metric: Tmax

Look up and report measured Tmax for this entry: "CNC(=O)CCCN(C)C(=O)c1ccc2c(c1)c1c(n2C)CC[C@@H](C2CCOCC2)C1" 2.2 h

====

Test: Thermodynamic solubility of the compound at pH 7.4
Conditions: buffer
reported metric: log10(solubility thermodynamic) (log10 of the value in µM)
Note: values are log10 of solubility thermodynamic expressed in µM.

Look up and report measured log10(solubility thermodynamic) for this entry: "CN(CC(=O)NC1CC1)C(=O)c1ccc2c(c1)c1c(n2C)CC[C@@H](C2CCOCC2)C1" 1.93

Look up and report measured log10(solubility thermodynamic) for this entry: "CNC(=O)CCCN(C)C(=O)c1ccc2c(c1)c1c(n2C)CC[C@H](C2CCOCC2)C1" 3.03

Look up and report measured log10(solubility thermodynamic) for this entry: "CNC(=O)CCCN(C)C(=O)c1ccc2c(c1)c1c(n2C)CC[C@@H](C2CCOCC2)C1" 3.05

More entries:
Look up and report measured log10(solubility thermodynamic) for this entry: "CN(CCCC(=O)NCCF)C(=O)c1ccc2c(c1)c1c(n2C)CC[C@@H](C2CCOCC2)C1" 2.67

Look up and report measured log10(solubility thermodynamic) for this entry: "CN(CCCC(=O)NC1COC1)C(=O)c1ccc2c(c1)c1c(n2C)CC[C@@H](C2CCOCC2)C1" 3.22

Look up and report measured log10(solubility thermodynamic) for this entry: Cn1c2c(c3cc(C(=O)NCCCC(=O)NC4CC4)ccc31)CC(C1CCOCC1)CC2 (stereo unspecified) 0.00

====

Below, each entry is listed with its recorded microsomal CLint at 1 µM.
Experiment: Intrinsic clearance in human liver microsomes at 1 uM in presence of NADPH
Format: ADME, Microsome
Conditions: read-out: CLH
Entry rule: numbers only, all in µL/min/mg.

Recorded microsomal CLint at 1 µM, per entry:
Look up and report measured microsomal CLint at 1 µM for this entry: "CCNC(=O)CC[C@@H](CO)N(C)C(=O)c1ccc2c(c1)c1c(n2C)CC[C@@H](C2CCOCC2)C1" 21

Look up and report measured microsomal CLint at 1 µM for this entry: "CNC(=O)CCCN(C)C(=O)c1ccc2c(c1)c1c(n2C)CC[C@H](C2CCOCC2)C1" 31

Look up and report measured microsomal CLint at 1 µM for this entry: "CCN(CC(=O)NC1CC1)C(=O)c1ccc2c(c1)c1c(n2C)CC[C@@H](C2CCOCC2)C1" 36

Look up and report measured microsomal CLint at 1 µM for this entry: "CN(CCCC(=O)NCC#N)C(=O)c1ccc2c(c1)c1c(n2C)CC[C@@H](C2CCOCC2)C1" 42

Look up and report measured microsomal CLint at 1 µM for this entry: "CONC(=O)CCCN(C)C(=O)c1ccc2c(c1)c1c(n2C)CC[C@@H](C2CCOCC2)C1" 36

More entries:
Look up and report measured microsomal CLint at 1 µM for this entry: CCN(CCCC(=O)NC1CC1)C(=O)c1ccc2c(c1)c1c(n2C)CCC(C2CCOCC2)C1 (stereo not drawn) 143

Look up and report measured microsomal CLint at 1 µM for this entry: "CN(CCCC(=O)NC1COC1)C(=O)c1ccc2c(c1)c1c(n2C)CC[C@@H](C2CCOCC2)C1" 29

Reference source: ChEMBL document CHEMBL2029249
